- System: VERO cells
- experiment: Toxicity assay, MTT viability on VERO cells
- Type: cell-based, African Green Monkey
- measurementParameters: VERO cells survival, 48 hours, MTT; average of three independent determinations; read-out: TC50 (the source's name)
reportedEndpoint: CC50 (µM)
Numbers only, in µM.

Record request: CC50 value, item Cl.O=[N+]([O-])c1ccc(N2CCC(NCCC(O)c3ccc(F)cc3)CC2)c(C(F)(F)F)c1 (stereo not shown) [Compound 7]
30.2

====

- Test system: Plasmodium falciparum FCR-3
- experiment: In vitro antiplasmodial drug assay ([3H]-hypoxanthine incorporation)
- Type: cell-based
- measurementParameters: FCR3; chloroquine-resistant FCR-3 strain; 50% of Plasmodium falciparum growth; average of three independent determinations; read-out: IC50
reportedEndpoint: pIC50
Answers are plain numbers, as −log10 of the molar value.

- molecule: "OC(CCN1CC=C(c2ccc(F)cc2)CC1)c1ccc(F)c2ccccc12 (stereo not shown)"
  measuredOn: "Plasmodium falciparum FCR-3"
  pIC50: 6.40
- molecule: "O=[N+]([O-])c1ccc(N2CCC(NCCC(O)c3ccc(F)c4ccccc34)CC2)c(C(F)(F)F)c1 (stereo not shown)"
  measuredOn: "Plasmodium falciparum FCR-3"
  pIC50: 6.82

Required: pIC50, one value per molecule below.
1. OC(CCN1CC=C(c2ccc(F)cc2)CC1)c1ccc(F)cc1 (stereo not shown)
2. OC(CCN1CC=C(c2ccc(F)cc2)CC1)c1ccc2ccccc2c1 (stereo not shown)

[6.18, 4.44]
